Assay: in vivo
Conditions: rat, plasma, po, 10 mg/kg
attribute-measured: Cmax
# answer = value followed by unit

Consider the reported Cmax for these compounds:
{"columns": ["compound", "Cmax"],
 "data": [
  ["CC(C)C(NC(=O)N(C)Cc1ccccn1)C(=O)N[C@@H](Cc1ccccc1)[C@@H](O)C[C@H](Cc1ccccc1)NC(=O)OCc1ccoc1 (stereo partly drawn)", "1020 nM"],
  ["COc1ccc(COC(=O)NC(C(=O)N[C@@H](Cc2ccccc2)[C@@H](O)C[C@H](Cc2ccccc2)NC(=O)OCc2cccnc2)C(C)C)nc1 (stereo partly drawn)", "1200 nM"]
]}

Lab note: CC(C)C(NC(=O)N(C)Cc1ccccn1)C(=O)N[C@@H](Cc1ccccc1)[C@@H](O)C[C@H](Cc1ccccc1)NC(=O)OCc1cncnc1 (stereo partly drawn) gave Cmax of 2910 nM

----------
Experiment: in vivo
Conditions: rat, plasma, po
attribute-measured: Tmax (min)
Numbers only, in min.

{"columns": ["molecule", "Tmax, min"],
 "data": [
  ["Cc1ncc(COC(=O)NC(C(=O)N[C@@H](Cc2ccccc2)C[C@H](O)[C@H](Cc2ccccc2)NC(=O)OCc2cccnc2)C(C)C)nc1C (stereo partly drawn)", 6],
  ["COc1ccc(COC(=O)NC(C(=O)N[C@@H](Cc2ccccc2)C[C@H](O)[C@H](Cc2ccccc2)NC(=O)OCc2cccnc2)C(C)C)nc1 (stereo partly drawn)", 6],
  ["Cc1ccc(COC(=O)NC(C(=O)N[C@@H](Cc2ccccc2)C[C@H](O)[C@H](Cc2ccccc2)NC(=O)OCc2cccnc2)C(C)C)cn1 (stereo partly drawn)", 9],
  ["Cc1cccc(CN(C)C(=O)NC(C(=O)N[C@@H](Cc2ccccc2)C[C@H](O)[C@H](Cc2ccccc2)NC(=O)OCc2cccnc2)C(C)C)n1 (stereo partly drawn)", 17.4],
  ["COc1cncc(CN(C)C(=O)NC(C(=O)N[C@@H](Cc2ccccc2)C[C@H](O)[C@H](Cc2ccccc2)NC(=O)OCc2cccnc2)C(C)C)c1 (stereo partly drawn)", 9]
]}

Please look at the items below and tell me Tmax for each one, in order.
1. COc1ccc(COC(=O)NC(C(=O)N[C@@H](Cc2ccccc2)[C@@H](O)C[C@H](Cc2ccccc2)NC(=O)OCc2cccnc2)C(C)C)cn1 (stereo partly drawn)
2. COCc1nc(COC(=O)NC(C(=O)N[C@@H](Cc2ccccc2)[C@@H](O)C[C@H](Cc2ccccc2)NC(=O)OCc2cccnc2)C(C)C)cs1 (stereo partly drawn)
3. CC(C)c1nc(COC(=O)NC(C(=O)N[C@@H](Cc2ccccc2)C[C@H](O)[C@H](Cc2ccccc2)NC(=O)OCc2cncs2)C(C)C)cs1 (stereo partly drawn)
4. COc1cncc(COC(=O)NC(C(=O)N[C@@H](Cc2ccccc2)C[C@H](O)[C@H](Cc2ccccc2)NC(=O)OCc2cccnc2)C(C)C)c1 (stereo partly drawn)
5. CC(C)c1ncc(COC(=O)NC(C(=O)N[C@@H](Cc2ccccc2)[C@@H](O)C[C@H](Cc2ccccc2)NC(=O)OCc2cccnc2)C(C)C)s1 (stereo partly drawn)
6. CC(C)c1nc(CN(C)C(=O)NC(C(=O)N[C@@H](Cc2ccccc2)[C@@H](O)C[C@H](Cc2ccccc2)NC(=O)OCc2cccnc2)C(C)C)co1 (stereo partly drawn)

Output:
1: 9; 2: 13.8; 3: 6; 4: 6; 5: 12; 6: 6

Please look at the items below and tell me Tmax for each one, in order.
1. CCc1ncc(COC(=O)NC(C(=O)N[C@@H](Cc2ccccc2)C[C@H](O)[C@H](Cc2ccccc2)NC(=O)OCc2cccnc2)C(C)C)s1 (stereo partly drawn)
2. Cc1ncc(COC(=O)N[C@@H](Cc2ccccc2)[C@@H](O)C[C@H](Cc2ccccc2)NC(=O)C(NC(=O)N(C)Cc2csc(C(C)C)n2)C(C)C)s1 (stereo partly drawn)

Output:
1: 6; 2: 72

----------
Assay: in vivo
Settings: rat, plasma, po, 10 mg/kg
attribute-measured: log10 of Cmax (log10 of the value in nM)
A value of 2 here means Cmax of 100 in nM, since values are log10.

Consider the reported log10 of Cmax for these compounds:
{"columns": ["compound", "log10 of Cmax"],
 "data": [
  ["CC(C)C(NC(=O)OCc1cnccn1)C(=O)N[C@@H](Cc1ccccc1)[C@@H](O)C[C@H](Cc1ccccc1)NC(=O)OCc1cccnc1 (stereo partly drawn)", 3.01],
  ["COc1cncc(COC(=O)NC(C(=O)N[C@@H](Cc2ccccc2)[C@@H](O)C[C@H](Cc2ccccc2)NC(=O)OCc2cccnc2)C(C)C)c1 (stereo partly drawn)", 2.48],
  ["CC(C)c1ncc(COC(=O)NC(C(=O)N[C@@H](Cc2ccccc2)[C@@H](O)C[C@H](Cc2ccccc2)NC(=O)OCc2cccnc2)C(C)C)s1 (stereo partly drawn)", 2.00],
  ["Cc1ncc(COC(=O)N[C@@H](Cc2ccccc2)[C@@H](O)C[C@H](Cc2ccccc2)NC(=O)C(NC(=O)N(C)Cc2csc(C(C)C)n2)C(C)C)s1 (stereo partly drawn)", 2.81],
  ["CC(C)c1nc(CN(C)C(=O)NC(C(=O)N[C@@H](Cc2ccccc2)C[C@H](O)[C@H](Cc2ccccc2)NC(=O)OCc2cnco2)C(C)C)co1 (stereo partly drawn)", 3.31]
]}

Please look at the items below and tell me log10 of Cmax for each one, in order.
1. Cc1ncc(CN(C)C(=O)NC(C(=O)N[C@@H](Cc2ccccc2)[C@@H](O)C[C@H](Cc2ccccc2)NC(=O)OCc2cccnc2)C(C)C)nc1C (stereo partly drawn)
2. Cc1ccc(CN(C)C(=O)NC(C(=O)N[C@@H](Cc2ccccc2)[C@@H](O)C[C@H](Cc2ccccc2)NC(=O)OCc2cccnc2)C(C)C)cn1 (stereo partly drawn)
3. CCc1nc(COC(=O)NC(C(=O)N[C@@H](Cc2ccccc2)[C@@H](O)C[C@H](Cc2ccccc2)NC(=O)OCc2cccnc2)C(C)C)cs1 (stereo partly drawn)

Output:
1. 3.18
2. 3.09
3. 3.00

Please look at the items below and tell me log10 of Cmax for each one, in order.
1. CC(C)c1nc(CN(C)C(=O)NC(C(=O)N[C@@H](Cc2ccccc2)[C@@H](O)C[C@H](Cc2ccccc2)NC(=O)OCc2cncs2)C(C)C)cs1 (stereo partly drawn)
2. COCc1nc(CN(C)C(=O)NC(C(=O)N[C@@H](Cc2ccccc2)C[C@H](O)[C@H](Cc2ccccc2)NC(=O)OCc2cccnc2)C(C)C)cs1 (stereo partly drawn)
3. CC(C)C(NC(=O)OCc1nccs1)C(=O)N[C@@H](Cc1ccccc1)C[C@H](O)[C@H](Cc1ccccc1)NC(=O)OCc1cccnc1 (stereo partly drawn)
4. CC(C)C(NC(=O)N(C)Cc1cscn1)C(=O)N[C@@H](Cc1ccccc1)C[C@H](O)[C@H](Cc1ccccc1)NC(=O)OCc1cccnc1 (stereo partly drawn)
5. CC(C)c1nc(CN(C)C(=O)NC(C(=O)N[C@@H](Cc2ccccc2)C[C@H](O)[C@H](Cc2ccccc2)NC(=O)OCc2cncs2)C(C)C)cs1 (stereo partly drawn)

Output:
[3.36, 3.13, 3.40, 2.81, 3.42]

----------
Assay: in vivo
Conditions: rat, plasma, po, 10 mg/kg
attribute-measured: Cmax (nM)
Answers are plain numbers, in nM.

Consider the reported Cmax for these compounds:
{"columns": ["compound", "attribute-measured", "unit-name", "recorded-number"],
 "data": [
  ["CC(C)c1nc(CN(C)C(=O)NC(C(=O)N[C@@H](Cc2ccccc2)C[C@H](O)[C@H](Cc2ccccc2)NC(=O)OCc2cccnc2)C(C)C)co1 (stereo partly drawn)", "Cmax", "nM", 2130],
  ["CC(C)C(NC(=O)N(C)Cc1csc(C2CC2)n1)C(=O)N[C@@H](Cc1ccccc1)C[C@H](O)[C@H](Cc1ccccc1)NC(=O)OCc1cncs1 (stereo partly drawn)", "Cmax", "nM", 6460]
]}

Okay, next one:
Lab note: CC(C)c1nc(CN(C)C(=O)NC(C(=O)N[C@@H](Cc2ccccc2)C[C@H](O)[C@H](Cc2ccccc2)NC(=O)OCc2cnco2)C(C)C)cs1 (stereo partly drawn) gave Cmax of 1590

----------
Test: in vivo
Details: rat, plasma, po, 10 mg/kg
attribute-measured: Cmax (nM)
Give bare numbers, in nM.

Consider the reported Cmax for these compounds:
{"columns": ["compound", "attribute-measured", "recorded-number"],
 "data": [
  ["Cc1ncc(COC(=O)N[C@@H](Cc2ccccc2)C[C@H](O)[C@H](Cc2ccccc2)NC(=O)C(NC(=O)N(C)Cc2csc(C(C)C)n2)C(C)C)s1 (stereo partly drawn)", "Cmax", 2080],
  ["CCc1nc(CN(C)C(=O)NC(C(=O)N[C@@H](Cc2ccccc2)[C@@H](O)C[C@H](Cc2ccccc2)NC(=O)OCc2cncs2)C(C)C)cs1 (stereo partly drawn)", "Cmax", 5120]
]}

Okay, next one:
Lab note: Cc1ncc(CN(C)C(=O)NC(C(=O)N[C@@H](Cc2ccccc2)C[C@H](O)[C@H](Cc2ccccc2)NC(=O)OCc2cccnc2)C(C)C)nc1C (stereo partly drawn) gave Cmax of 1130
